All figures here come from patent US12269831B2.

- experimental.system: CFTR (F508del/MF-HBE cells) (Homo sapiens, UniProt P13569, DEL508-508)
- Construct: human bronchial epithelial (HBE) cells derived from CF subjects heterozygous for F508del and a minimal function CFTR mutation (F508del/MF-HBE); endogenous in cells
- Sequence (P13569 with tags, fused parts or gaps DEL508-508): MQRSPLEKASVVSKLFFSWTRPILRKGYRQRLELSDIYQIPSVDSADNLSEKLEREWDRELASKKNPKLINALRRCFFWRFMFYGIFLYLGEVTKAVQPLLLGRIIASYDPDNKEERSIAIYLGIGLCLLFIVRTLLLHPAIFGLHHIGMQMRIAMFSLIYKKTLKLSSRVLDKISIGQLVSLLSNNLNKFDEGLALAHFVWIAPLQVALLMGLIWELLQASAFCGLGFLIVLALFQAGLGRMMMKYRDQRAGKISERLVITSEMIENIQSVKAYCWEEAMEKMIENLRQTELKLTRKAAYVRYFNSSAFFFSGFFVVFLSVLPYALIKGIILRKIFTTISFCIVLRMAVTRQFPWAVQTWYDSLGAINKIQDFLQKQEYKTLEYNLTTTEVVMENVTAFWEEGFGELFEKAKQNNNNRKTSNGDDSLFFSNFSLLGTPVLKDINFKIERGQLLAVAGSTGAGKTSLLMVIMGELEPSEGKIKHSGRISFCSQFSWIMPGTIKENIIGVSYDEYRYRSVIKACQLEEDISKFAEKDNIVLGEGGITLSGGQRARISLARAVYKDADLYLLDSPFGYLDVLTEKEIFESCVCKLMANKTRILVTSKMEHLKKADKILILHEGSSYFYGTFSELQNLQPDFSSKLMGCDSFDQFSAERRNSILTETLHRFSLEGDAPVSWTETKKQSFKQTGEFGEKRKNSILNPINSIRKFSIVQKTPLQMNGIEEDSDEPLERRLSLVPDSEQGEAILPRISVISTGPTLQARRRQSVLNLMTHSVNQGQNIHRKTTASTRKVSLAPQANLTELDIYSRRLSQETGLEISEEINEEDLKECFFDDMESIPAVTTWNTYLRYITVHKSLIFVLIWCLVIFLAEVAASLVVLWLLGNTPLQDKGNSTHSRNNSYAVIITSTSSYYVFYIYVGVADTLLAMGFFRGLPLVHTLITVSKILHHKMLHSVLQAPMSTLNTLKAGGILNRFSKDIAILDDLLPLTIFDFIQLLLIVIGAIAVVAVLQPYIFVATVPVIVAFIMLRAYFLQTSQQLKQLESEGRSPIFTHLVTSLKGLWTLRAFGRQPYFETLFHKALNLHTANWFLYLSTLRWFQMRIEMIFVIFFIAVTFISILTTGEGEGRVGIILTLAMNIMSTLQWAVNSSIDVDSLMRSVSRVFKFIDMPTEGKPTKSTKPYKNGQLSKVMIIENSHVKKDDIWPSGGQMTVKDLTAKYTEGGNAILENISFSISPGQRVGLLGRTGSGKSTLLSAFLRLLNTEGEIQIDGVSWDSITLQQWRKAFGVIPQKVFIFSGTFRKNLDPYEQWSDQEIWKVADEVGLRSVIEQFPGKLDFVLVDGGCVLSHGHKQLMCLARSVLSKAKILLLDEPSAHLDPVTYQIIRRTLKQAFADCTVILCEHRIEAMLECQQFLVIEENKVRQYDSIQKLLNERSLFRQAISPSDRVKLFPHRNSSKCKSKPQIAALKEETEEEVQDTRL
- assay.overview: Ussing chamber assay of CFTR-mediated short-circuit currents (potentiator identification)
- setup.conditions: CFTR-mediated Isc, 18-24 h incubation at 37° C. with 10 μM (14S)-8-[3-(2-{dispiro[2.0.2.1]heptan-7-yl}ethoxy)-1H-pyrazol-1-yl]-... corrector, 20% human serum
pEC50: −log10 of the molar value.
assay.endpoint: pEC50

The cases that follow already have their pEC50 on record.
>>> experimental_result("Nc1cc(C(F)(F)F)c2nc1-c1nnc(o1)[C@@](O)(C(F)(F)F)CCCCCC[S@+]2[O-]")
"> 6.30"
>>> experimental_result("C[C@H]1Oc2nc(c(N)cc2C(F)(F)F)C2=NN=C(O2)[C@@](O)(C(F)(F)F)CCCCC1O (single isomer, unassigned) [Compound 40]")
"> 6.30"
>>> experimental_result("C[C@@H]1CC(=O)CCC[C@](O)(C(F)(F)F)C2=NN=C(O2)c2nc(c(C(F)(F)F)cc2N)O1")
"< 6.00"

Given CC(C)C1CCCCC[C@](O)(C(F)(F)F)C2=NN=C(O2)c2nc(c(C(F)(F)F)cc2N)O1 (single isomer, unassigned) [Compound 35] , respond with its pEC50.
> 6.30

Given CC(C)(C)c1cccc(CC2CCCCC[C@](O)(C(F)(F)F)C3=NN=C(O3)c3nc(c(C(F)(F)F)cc3N)O2)c1 (single isomer, unassigned) [Compound 52] , respond with its pEC50.
> 6.30

Given Nc1cc(C(F)(F)F)c2nc1-c1nnc(o1)[C@@](O)(C(F)(F)F)CCCCCC(CC1CC1)O2 (single isomer, unassigned) [Compound 47] , respond with its pEC50.
> 6.30

====

- experimental.system: CFTR (F508del/MF-HBE cells) (Homo sapiens, UniProt P13569, DEL508-508)
- Construct: human bronchial epithelial (HBE) cells derived from CF subjects heterozygous for F508del and a minimal function CFTR mutation (F508del/MF-HBE); endogenous in cells
- assay.overview: Ussing chamber assay of CFTR-mediated short-circuit currents (potentiator identification)
- setup.conditions: CFTR-mediated Isc, 18-24 h incubation at 37° C. with 10 μM (14S)-8-[3-(2-{dispiro[2.0.2.1]heptan-7-yl}ethoxy)-1H-pyrazol-1-yl]-... corrector, 20% human serum
// reported EC50 per item

>>> experimental_result("Nc1cc(C(F)(F)F)c2nc1-c1nnc(o1)[C@@](O)(C(F)(F)F)CCCCCC(CC1CC1)O2 (single isomer, unassigned) [Compound 48]")
"< 500 nM"

Given C[C@@H]1CCCC(O)C[C@](O)(C(F)(F)F)C2=NN=C(O2)c2nc(c(C(F)(F)F)cc2N)O1 (single isomer, unassigned) , respond with its EC50.
< 500 nM

Given C[C@@H]1CC(O)CCC[C@](O)(C(F)(F)F)C2=NN=C(O2)c2nc(c(C(F)(F)F)cc2N)O1 (single isomer, unassigned) [Compound 46] , respond with its EC50.
< 500 nM

====

- experimental.system: CFTR (F508del/MF-HBE cells) (Homo sapiens, UniProt P13569, DEL508-508)
- Construct: human bronchial epithelial (HBE) cells derived from CF subjects heterozygous for F508del and a minimal function CFTR mutation (F508del/MF-HBE); endogenous in cells
- assay.overview: Ussing chamber assay of CFTR-mediated short-circuit currents (potentiator identification)
- setup.conditions: CFTR-mediated Isc, 18-24 h incubation at 37° C. with 10 μM (14S)-8-[3-(2-{dispiro[2.0.2.1]heptan-7-yl}ethoxy)-1H-pyrazol-1-yl]-... corrector, 20% human serum
pEC50: −log10 of the molar value.
assay.endpoint: pEC50

Given [2H]C([2H])([2H])[C@@]1([2H])Oc2nc(c(N)cc2C(F)(F)F)C2=NN=C(O2)[C@@](O)(C(F)(F)F)CCCCC1([2H])[2H] [Compound 39] , respond with its pEC50.
> 6.30

Given CC1CCCCCC(O)(C(F)(F)F)C2=NN=C(O2)c2nc(c(C(F)(F)F)cc2N)O1 (centres unmarked) [Compound 7] , respond with its pEC50.
> 6.30
